For each entry below, report its pIC50 value.
method_notes: Inhibition of [3H]WIN-35428 binding to the dopamine transporter in the cynomolgus (macaca fascicularis) monkey caudate-putamen.
Here pIC50 is given on a logarithmic scale as minus log10 of the concentration in mol/L.

Form field pIC50, entry COC(=O)C1C2CCC(C[C@@H]1OC(c1ccc(Cl)cc1)c1ccc(Cl)cc1)N2C (stereo partly drawn) : 7.04

Form field pIC50, entry COC(=O)C1C2CCC(C[C@@H]1OC(c1ccc(F)cc1)c1ccc(F)cc1)N2CCCc1ccc(I)cc1 (stereo partly drawn) : 6.92

Form field pIC50, entry COC(=O)C1C2CCC(C[C@@H]1OC(c1ccc(F)cc1)c1ccc(F)cc1)N2CCCCCc1ccccc1 (stereo partly drawn) : 7.00

Form field pIC50, entry COC(=O)C1C2CCC(C[C@@H]1OC(c1ccccc1)c1ccc(F)cc1)N2C (stereo partly drawn) : 7.88

Form field pIC50, entry COC(=O)C1C2CCC(C[C@@H]1OC1c3ccccc3-c3ccccc31)N2C (stereo partly drawn) : 5.22

Form field pIC50, entry COC(=O)C1C2CCC(C[C@@H]1OC(c1ccccc1)c1ccc(Br)cc1)N2C (stereo partly drawn) : 7.62

Form field pIC50, entry COC(=O)C1C2CCC(C[C@@H]1OC(c1ccc(Br)cc1)c1ccc(I)cc1)N2C (stereo partly drawn) : 6.41

Form field pIC50, entry COC(=O)C1C2CCC(C[C@@H]1OC(c1ccc(C)cc1)c1ccc(C)cc1)N2C (stereo partly drawn) : 6.62

The measurements presented in this section are drawn from ChEMBL document CHEMBL1129654.
